# Assayed target: T1, recombinant human CD33 protein (Sino Biologicals) (human, UniProt P20138 18-259)
# T1 construct: Bought protein; also called recombinant CD33
# T1 sequence (P20138 18-259 limits assumed): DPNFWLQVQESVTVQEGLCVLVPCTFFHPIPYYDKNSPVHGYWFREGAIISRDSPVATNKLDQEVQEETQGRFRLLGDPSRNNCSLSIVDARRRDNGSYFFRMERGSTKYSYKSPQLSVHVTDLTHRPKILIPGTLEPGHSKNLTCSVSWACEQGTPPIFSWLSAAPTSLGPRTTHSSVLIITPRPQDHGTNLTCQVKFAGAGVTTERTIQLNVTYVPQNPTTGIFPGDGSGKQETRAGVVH
# Assay info: BLI (ForteBio), antibody on anti-human Fc sensor, CD33 10 nM
Quantity name: Kd (nM)
All answers are understood in nM, so give the number only.

Per the records, this binder ( anti-CD33 antibody 6C7H17 (antibody, V domains shown, VH/VL only) VH: EVQLVESGGGLVQPGGSLRLSCAGSGFTFSNYYMNWVRQAPGKGLEWVAEIRLKSNNYVTNYAASVKGRFTISRDDSKNSVYLQMNSLKTEDTGVYYCTRAGYYVPFAYWGQGTLVTVSS VL: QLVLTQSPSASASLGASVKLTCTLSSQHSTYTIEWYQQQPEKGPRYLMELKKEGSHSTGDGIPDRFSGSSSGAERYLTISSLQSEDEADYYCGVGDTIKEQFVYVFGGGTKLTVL ) has Kd equal to 0.853

Per the records, this binder ( anti-CD33 antibody 6C7H24 (antibody, V domains shown, VH/VL only) VH: EVQLVESGGGLVQPGGSLRLSCAGSGFTFSNYNMNWVRQAPGKGLEWVAEIRLKSNNYVTNYAASVKGRFTISRDDSKNSVYLQMNSLKTEDTGVYYCTRAGYYVPFAYWGQGTLVTVSS VL: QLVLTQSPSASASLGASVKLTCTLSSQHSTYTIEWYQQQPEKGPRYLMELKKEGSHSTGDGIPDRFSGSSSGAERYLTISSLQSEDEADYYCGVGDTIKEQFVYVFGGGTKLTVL ) has Kd equal to 0.552

Per the records, this binder ( anti-CD33 antibody 6C7H19 (antibody, V domains shown, VH/VL only) VH: EVQLVESGGGLVQPGGSLRLSCAGSGFTFSNYRMNWVRQAPGKGLEWVAEIRLKSNNYVTNYAASVKGRFTISRDDSKNSVYLQMNSLKTEDTGVYYCTRAGYYVPFAYWGQGTLVTVSS VL: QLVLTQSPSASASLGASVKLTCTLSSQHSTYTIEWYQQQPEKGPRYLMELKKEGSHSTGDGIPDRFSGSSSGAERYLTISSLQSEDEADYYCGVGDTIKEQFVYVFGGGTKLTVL ) has Kd equal to 0.238
